assay notes: physchem
particulars: octanol/water
Description: GSK_TB: GSK in-house hydrophobicity assay (logP)
Rule: logP under 5 gives false (0), otherwise true (1).

Record excerpt, results attached:
compound: Cc1nn(Cc2ccccc2)c(Cl)c1C(=O)NC1CCCCCC1
assigned category: true (1)
--
compound: COc1ccc(-c2nsc(SCC(=O)N3CCCC3)n2)cc1
assigned category: true (1)
--
compound: Cc1cc(NCCc2ccccc2)nc(NC(=N)Nc2ccc(Cl)cc2)n1
assigned category: true (1)
--
compound: O=C(NC(Cc1ccccc1)C(=O)Nc1ccccc1N1CCOCC1)c1cccs1 (stereo not given)
assigned category: true (1)
--
compound: COc1ccc2nc(C)cc(OCC(=O)NCc3ccccc3)c2c1
assigned category: false (0)
--
compound: O=C(C=Cc1ccco1)N1CCN(Cc2ccc3c(c2)OCO3)CC1
assigned category: false (0)
--
compound: O=C(Nc1nnc(-c2ccc(Cl)cc2)o1)c1cccc(C(F)(F)F)c1
assigned category: true (1)
--
compound: CC(=O)NCCn1c(Sc2ccnc(N3CCN(c4ccncc4)CC3)n2)nnc1-c1ccccc1
assigned category: false (0)

Exam item: # bool: logP of CC(C)c1ccc(-c2cncc(N3CCN(c4ccncc4)CC3)n2)cc1 >= 5
Marked response: true (1)

Exam item: For CCC(Sc1nc2ccccc2o1)C(=O)Nc1nccs1 (stereo not given) then?
Marked response: true (1)

Origin of values: ChEMBL document CHEMBL2095176
